meta.source: patent US8318731B2

test system: H1299; experiment: Cellular proliferation assay (Alamar blue), H1299; type: cell-based; settings: Homo sapiens, NCI-H1299, H1299 cells; 10% FCS; 72 h with compound; Alamar blue 4 h; read-out: pIC50 H1299 (converted)
parameter-measured: IC50

Specify reported IC50 for the compound shown: `CN1CCCN(C)C(=O)COc2cc(ccc2OCCO)Nc2ncnc3[nH]cc(c23)C1`
> 10 µM

Specify reported IC50 for the compound shown: `CN1CCCN(C)C(=O)COc2cc(ccc2OCC2CCN(Cc3ccccc3)CC2)Nc2ncnc3[nH]cc(c23)C1`
≥ 10 µM

Specify reported IC50 for the compound shown: `CN1CCN(C)C(=O)CCCCOc2cccc(c2)Nc2ncnc3[nH]cc(c23)C1`
> 10 µM

Specify reported IC50 for the compound shown: `CN1CCCN(C)C(=O)Cc2cccc(c2)Nc2ncnc3[nH]cc(c23)C1`
> 10 µM

---

tested on: U87-MG; assay: Cellular proliferation assay (Alamar blue), U87-MG; format: cell-based; conditions: Homo sapiens, U-87 MG; U87-MG cells; 10% FCS; 72 h with compound; Alamar blue 6 h; read-out: pIC50 U87MG (converted)
Known IC50 of a selection of compounds

# compound, IC50
data = [
    ("CN1CCCN(C)C(=O)COc2cc(ccc2NC(=O)Nc2cccc(Cl)c2)Nc2ncnc3[nH]cc(c23)C1", "> 10 µM"),
    ("COc1ccc2cc1OCCCCC(=O)N1CCN(CC1)Cc1c[nH]c3ncnc(c13)N2", "> 10 µM"),
    ("COc1ccc2cc1OCC(=O)N1CCC[C@@H]1CN(C)CCCc1c[nH]c3ncnc(c13)N2", "> 10 µM"),
    ("COc1ccc2cc1OCC(=O)N(C1CCCCC1)CCCN(C)Cc1c[nH]c3ncnc(c13)N2", "> 10 µM"),
    ("CN1CCCN(C)C(=O)COc2cc(ccc2OCCO)Nc2ncnc3[nH]cc(c23)C1", "> 10 µM"),
]

Fill: IC50 (U87-MG) for this compound COc1ccc2cc1OCC(=O)N1CCCC(CN(C)CCCc3c[nH]c4ncnc(c34)N2)C1 (centres unmarked)
> 10 µM

Fill: IC50 (U87-MG) for this compound `COc1cc2cc(c1OC)CN(C(C)C)CC(=O)N(C)CCCc1c[nH]c3ncnc(c13)N2`
> 10 µM

Fill: IC50 (U87-MG) for this compound `COc1cc2cc(c1OC)OCC(=O)N(C)CCCN(C)Cc1c[nH]c3ncnc(c13)N2`
> 10 µM

Fill: IC50 (U87-MG) for this compound `CN1CCN(C)C(=O)CCc2cc(ccc2N2CCOCC2)Nc2ncnc3[nH]cc(c23)C1`
> 10 µM

Fill: IC50 (U87-MG) for this compound `COc1ccc2cc1OCCCCCC(=O)N(C)CCCN(C)Cc1c[nH]c3ncnc(c13)N2`
> 10 µM

Fill: IC50 (U87-MG) for this compound `COc1ccc2cc1OCCCCC(=O)N(C)CCN(C)Cc1c[nH]c3ncnc(c13)N2`
> 10 µM

Fill: IC50 (U87-MG) for this compound `COCCOCCOc1ccc2cc1OCC(=O)N(C)CCCN(C)Cc1c[nH]c3ncnc(c13)N2`
2.51 µM

Fill: IC50 (U87-MG) for this compound `COc1cc2cc(c1OC)CCC(=O)N(C)CCCN(C)Cc1c[nH]c3ncnc(c13)N2`
> 10 µM
